The reported measurements were obtained from ChEMBL document CHEMBL2331236.

Assay: Cmax in ICR mouse plasma at 10 mg/kg, po
Assay type: ADME, organism-based
Set-up: dose 10 mg/kg, route oral
Listed next: entries and their corresponding Cmax.
Kindly format the answer as number then unit.

Query block: Give reported Cmax value for O[C@H](COc1ccc(C(F)(F)F)cc1)CN1CCN(Cc2c(F)cccc2Cl)CC1
Result block: 197 ng/mL

// next entry
Query block: Please look at this compound and report its Cmax: COc1cccc(N2CCN(C[C@H](O)COc3ccc(C(F)(F)F)cc3)CC2)c1
Result block: 1570 ng/mL

----------
Each entry below carries its recorded half-life.
Assay: Terminal half life in ICR mouse brain at 10 mg/kg, po
Format: ADME, organism-based
Parameters: dose 10 mg/kg, route oral
Conditions: read-out: beta t1/2
Lab book: enter the figure in h, no units written.

Query block: Give a short answer stating reported half-life for O[C@H](COc1ccc(C(F)(F)F)cc1)CN1CCN(Cc2c(F)cccc2Cl)CC1 .
Result block: 3.1

Query block: # return recorded half-life for entry COc1cccc(N2CCN(C[C@H](O)COc3ccc(C(F)(F)F)cc3)CC2)c1
Result block: 7.91

----------
Assay: AUC (0 to infinity) in ICR mouse plasma at 10 mg/kg, po
Assay type: ADME, organism-based
Parameters: time infinity, dose 10 mg/kg, route oral
AUC(0-inf) reference
Give a bare numeral; the unit ng·h/mL is implied.

Query block: Give reported AUC(0-inf) value for COc1cccc(N2CCN(C[C@H](O)COc3ccc(C(F)(F)F)cc3)CC2)c1
Result block: 3300

Further cases:
Query block: Dear colleague, please send me the reported AUC(0-inf) for O[C@H](COc1ccc(C(F)(F)F)cc1)CN1CCN(Cc2c(F)cccc2Cl)CC1 when you can.
Result block: 276

----------
Molecular target: Voltage-dependent T-type calcium channel subunit alpha-1G (Homo sapiens, UniProt O43497)
Sequence (O43497 whole entry): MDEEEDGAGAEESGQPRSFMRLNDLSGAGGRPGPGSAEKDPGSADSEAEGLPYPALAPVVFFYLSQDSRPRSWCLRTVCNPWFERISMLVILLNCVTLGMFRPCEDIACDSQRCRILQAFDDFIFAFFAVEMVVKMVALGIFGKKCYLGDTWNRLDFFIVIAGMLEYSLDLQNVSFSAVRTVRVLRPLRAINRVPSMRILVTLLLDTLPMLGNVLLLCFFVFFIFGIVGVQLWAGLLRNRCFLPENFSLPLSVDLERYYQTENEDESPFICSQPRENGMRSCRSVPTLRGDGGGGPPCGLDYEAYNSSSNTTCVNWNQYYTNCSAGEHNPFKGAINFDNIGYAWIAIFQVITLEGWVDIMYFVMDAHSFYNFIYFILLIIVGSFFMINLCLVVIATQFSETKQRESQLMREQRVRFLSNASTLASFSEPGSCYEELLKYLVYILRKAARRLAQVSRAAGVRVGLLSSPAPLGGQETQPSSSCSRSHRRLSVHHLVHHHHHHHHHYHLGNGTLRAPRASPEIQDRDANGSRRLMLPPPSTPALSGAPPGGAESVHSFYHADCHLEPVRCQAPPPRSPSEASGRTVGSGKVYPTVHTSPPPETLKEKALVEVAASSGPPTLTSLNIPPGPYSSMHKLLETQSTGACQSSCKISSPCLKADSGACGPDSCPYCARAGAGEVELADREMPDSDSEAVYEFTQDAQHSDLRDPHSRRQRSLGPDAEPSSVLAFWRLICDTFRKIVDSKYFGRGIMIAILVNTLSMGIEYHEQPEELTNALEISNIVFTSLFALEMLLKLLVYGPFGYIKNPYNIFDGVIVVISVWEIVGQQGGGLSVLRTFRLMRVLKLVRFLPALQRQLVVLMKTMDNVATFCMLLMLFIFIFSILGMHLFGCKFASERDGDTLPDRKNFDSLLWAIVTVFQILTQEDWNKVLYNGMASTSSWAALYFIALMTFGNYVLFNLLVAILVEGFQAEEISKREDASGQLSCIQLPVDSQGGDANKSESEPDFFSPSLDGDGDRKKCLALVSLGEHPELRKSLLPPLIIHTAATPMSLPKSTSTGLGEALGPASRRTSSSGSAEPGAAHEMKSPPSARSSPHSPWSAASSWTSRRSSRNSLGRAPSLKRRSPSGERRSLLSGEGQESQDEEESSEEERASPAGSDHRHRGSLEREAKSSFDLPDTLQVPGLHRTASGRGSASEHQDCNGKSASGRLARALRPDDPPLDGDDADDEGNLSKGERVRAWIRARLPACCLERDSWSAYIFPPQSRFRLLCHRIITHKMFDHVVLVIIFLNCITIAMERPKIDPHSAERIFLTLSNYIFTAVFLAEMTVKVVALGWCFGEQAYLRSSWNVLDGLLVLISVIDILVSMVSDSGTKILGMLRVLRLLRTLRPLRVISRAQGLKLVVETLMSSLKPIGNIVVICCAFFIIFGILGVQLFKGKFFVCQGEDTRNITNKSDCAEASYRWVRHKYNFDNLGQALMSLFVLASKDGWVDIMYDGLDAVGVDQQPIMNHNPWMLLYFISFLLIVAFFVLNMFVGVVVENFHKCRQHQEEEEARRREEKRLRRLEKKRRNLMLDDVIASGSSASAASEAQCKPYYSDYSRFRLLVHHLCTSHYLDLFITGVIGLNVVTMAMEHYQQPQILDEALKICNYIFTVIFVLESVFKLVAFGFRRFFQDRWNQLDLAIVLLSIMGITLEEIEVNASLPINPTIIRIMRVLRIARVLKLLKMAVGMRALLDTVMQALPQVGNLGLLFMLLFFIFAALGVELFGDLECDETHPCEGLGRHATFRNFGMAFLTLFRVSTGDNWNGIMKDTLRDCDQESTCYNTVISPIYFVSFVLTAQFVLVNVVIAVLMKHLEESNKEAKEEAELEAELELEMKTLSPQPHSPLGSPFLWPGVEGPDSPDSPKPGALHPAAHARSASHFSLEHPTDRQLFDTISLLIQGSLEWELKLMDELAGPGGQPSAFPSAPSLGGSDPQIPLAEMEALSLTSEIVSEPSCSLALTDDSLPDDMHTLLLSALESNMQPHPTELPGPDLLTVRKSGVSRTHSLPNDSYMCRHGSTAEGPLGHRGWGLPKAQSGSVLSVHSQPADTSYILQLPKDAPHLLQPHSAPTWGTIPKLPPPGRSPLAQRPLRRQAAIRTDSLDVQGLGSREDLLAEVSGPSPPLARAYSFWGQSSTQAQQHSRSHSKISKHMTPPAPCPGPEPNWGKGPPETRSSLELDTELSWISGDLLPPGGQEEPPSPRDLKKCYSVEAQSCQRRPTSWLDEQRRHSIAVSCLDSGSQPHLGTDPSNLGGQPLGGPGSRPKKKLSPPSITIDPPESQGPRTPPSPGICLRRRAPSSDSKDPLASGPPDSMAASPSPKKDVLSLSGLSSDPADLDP
Assay: Inhibition of alpha-1G calcium channel in human HEK293 cells at 10 uM by FDSS6000 fluorescence-based assay
Assign class by inhibition: not lower than 50% means Criterion met; lower than 50% means Criterion not met.

// known answers, use as guide
Query block: Reported inhibition at or above 50%? O[C@@H](COc1ccc(Cl)cc1)CN1CCN(Cc2ccc(Cl)cc2)CC1
Result block: Criterion not met

Query block: Check if inhibition >= 50% (inclusive). Item: O[C@H](COc1ccc(Cl)cc1)CN1CCN(c2ccccc2F)CC1
Result block: Criterion not met

Query block: # check: inhibition of O[C@H](COc1ccc(C(F)(F)F)cc1)CN1CCN(Cc2cccc(Cl)c2)CC1 is greater than or equal to 50%
Result block: Criterion not met

Query block: Could you please find out whether O[C@H](COc1ccc(F)cc1)CN1CCN(Cc2c(F)cccc2Cl)CC1 has inhibition that meets 50% or exceeds it?
Result block: Criterion met

Query block: Please tell me: is the molecule O[C@H](COc1ccc(F)cc1)CN1CCN(Cc2cccc(Cl)c2)CC1 at or over 50% in terms of inhibition?
Result block: Criterion met

New cases:
Query block: Dear colleague, could you confirm whether O[C@H](COc1ccc(C(F)(F)F)cc1)CN1CCN(Cc2ccc(Cl)c(Cl)c2)CC1 has inhibition at or above 50%?
Result block: Criterion not met

Query block: Would you say O[C@@H](COc1ccc(Cl)cc1)CN1CCN(c2ccccc2F)CC1 shows inhibition at minimum 50%?
Result block: Criterion not met

Query block: Record COc1ccccc1N1CCN(C[C@@H](O)COc2ccc(Cl)cc2)CC1 ; criterion: inhibition no lower than 50%. Met?
Result block: Criterion not met

Query block: In plain terms: is recorded inhibition at least 50% for O[C@H](COc1ccc(F)cc1)CN1CCN(Cc2ccccc2F)CC1 ?
Result block: Criterion not met

----------
Target: Voltage-dependent T-type calcium channel subunit alpha-1G (Homo sapiens)
Experiment: Inhibition of alpha-1G calcium channel in human HEK293 cells at 10 uM by FDSS6000 fluorescence-based assay
Values of inhibition greater than or equal to 40% map to 1.0; values below map to 0.0.

As a guide, the following entries are already answered.
Query block: Check this molecule for inhibition at or above 40%: O[C@@H](COc1ccc(C(F)(F)F)cc1)CN1CCN(Cc2ccc(Cl)c(Cl)c2)CC1
Result block: 0.0

Query block: Test whether the molecule O[C@@H](COc1ccc(F)cc1)CN1CCN(Cc2c(F)cccc2Cl)CC1 records inhibition of 40% or higher.
Result block: 1.0

Query block: Is inhibition at least 40%? Consider O[C@H](COc1ccc(F)cc1)CN1CCN(c2ccccc2F)CC1
Result block: 1.0

Query block: Can O[C@@H](COc1ccc(Cl)cc1)CN1CCN(Cc2ccccc2F)CC1 be said to have inhibition at or above 40%?
Result block: 0.0

Query block: Decide: is the reported value of inhibition for O[C@@H](COc1ccc(F)cc1)CN1CCN(Cc2ccc(Cl)cc2)CC1 equal to or greater than 40%?
Result block: 1.0

Query block: In plain terms: is recorded inhibition at least 40% for O[C@H](COc1ccc(Cl)cc1)CN1CCN(c2ccc(F)cc2)CC1 ?
Result block: 0.0

Query block: Hi team, for COc1cccc(N2CCN(C[C@@H](O)COc3ccc(Cl)cc3)CC2)c1 , is the recorded inhibition at or above 40%?
Result block: 1.0

Query block: Check the entry O[C@@H](COc1ccc(F)cc1)CN1CCN(Cc2cccc(Cl)c2)CC1 : does inhibition equal or exceed 40%?
Result block: 1.0

Query block: Can COc1ccccc1N1CCN(C[C@@H](O)COc2ccc(F)cc2)CC1 be said to have inhibition at or above 40%?
Result block: 1.0

Turning now to a further molecule:
Query block: Answer whether inhibition of COc1cccc(N2CCN(C[C@H](O)COc3ccc(C(F)(F)F)cc3)CC2)c1 is greater than or equal to 40%.
Result block: 1.0

----------
Assay: AUClast in ICR mouse brain at 10 mg/kg, po
Assay type: ADME, organism-based
Design: time 0 - last, dose 10 mg/kg, route oral
Conditions: ICR, brain
outcome_measure: AUC(0-t) (ng·h/mL)
Dear colleague, please return just the value in ng·h/mL, with no unit written.

Query block: Specify reported AUC(0-t) for the compound shown: COc1cccc(N2CCN(C[C@H](O)COc3ccc(C(F)(F)F)cc3)CC2)c1
Result block: 8290

----------
Test system: HEK293
Assay: Selectivity ratio of IC50 for human ERG to IC50 for alpha-1G calcium channel in human HEK293 cells
Assay type: cell-based
outcome_measure: Ratio IC50
Lab note: jot the number down without any unit.

Query block: Identify the reported Ratio IC50 for the following entry. O[C@H](COc1ccc(F)cc1)CN1CCN(Cc2ccc(Cl)cc2)CC1
Result block: 0.87

Query block: State its Ratio IC50 for this compound: O[C@@H](COc1ccc(F)cc1)CN1CCN(Cc2ccc(Cl)c(Cl)c2)CC1
Result block: 8.7

Query block: Supply measured Ratio IC50 of O[C@H](COc1ccc(C(F)(F)F)cc1)CN1CCN(Cc2c(F)cccc2Cl)CC1 in your reply.
Result block: 18.4

Query block: Retrieve Ratio IC50 measured for O[C@@H](COc1ccc(C(F)(F)F)cc1)CN1CCN(Cc2ccc(Cl)c(Cl)c2)CC1 and print it.
Result block: 7.24

Query block: Output Ratio IC50 of O[C@H](COc1ccc(F)cc1)CN1CCN(Cc2ccc(Cl)c(Cl)c2)CC1
Result block: 1.26

Query block: Quote Ratio IC50 reported for COc1ccccc1N1CCN(C[C@@H](O)COc2ccc(C(F)(F)F)cc2)CC1 please.
Result block: 2.21

Query block: Write down Ratio IC50 measured for item COc1cccc(N2CCN(C[C@H](O)COc3ccc(C(F)(F)F)cc3)CC2)c1
Result block: 8.5

***
Query block: Hello, please tell me recorded Ratio IC50 for this one: O[C@H](COc1ccc(Cl)cc1)CN1CCN(Cc2c(F)cccc2Cl)CC1
Result block: 1.46

----------
Assay: Tmax in ICR mouse brain at 10 mg/kg, po
Assay type: ADME, organism-based
Set-up: dose 10 mg/kg, route oral
The molecules listed here are annotated with their Tmax.
Value expressed in min; do not type the unit.

Query block: Return reported Tmax. Input molecule: COc1cccc(N2CCN(C[C@H](O)COc3ccc(C(F)(F)F)cc3)CC2)c1
Result block: 15

Others:
Query block: Output Tmax of O[C@H](COc1ccc(C(F)(F)F)cc1)CN1CCN(Cc2c(F)cccc2Cl)CC1
Result block: 30

----------
Molecular target: Voltage-dependent T-type calcium channel subunit alpha-1G (Homo sapiens, UniProt O43497)
Assay: Inhibition of alpha-1G calcium channel in human HEK293 cells at 10 uM by FDSS6000 fluorescence-based assay
outcome_measure: inhibition (%)
Numeric only. Scale: %

Answered examples (4):
Query block: Tell us which inhibition value is on record for COc1cccc(N2CCN(C[C@@H](O)COc3ccc(F)cc3)CC2)c1
Result block: 61.3

Query block: Tell us which inhibition value is on record for O[C@H](COc1ccc(C(F)(F)F)cc1)CN1CCN(Cc2ccccc2F)CC1
Result block: 48.6

Query block: For the compound O[C@H](COc1ccc(C(F)(F)F)cc1)CN1CCN(Cc2c(F)cccc2Cl)CC1 , give its measured inhibition value.
Result block: 55.1

Query block: Let me know recorded inhibition for COc1ccccc1N1CCN(C[C@H](O)COc2ccc(C(F)(F)F)cc2)CC1 , thanks.
Result block: 50.8

New cases:
Query block: Fill in inhibition for record COc1ccccc1N1CCN(C[C@H](O)COc2ccc(Cl)cc2)CC1
Result block: 48.8

Query block: Supply measured inhibition of O[C@@H](COc1ccc(C(F)(F)F)cc1)CN1CCN(c2ccc(F)cc2)CC1 in your reply.
Result block: 53.7

Query block: Please give the documented inhibition of O[C@H](COc1ccc(F)cc1)CN1CCN(c2ccc(F)cc2)CC1
Result block: 50
